In this section, each of the compounds is paired with its reported Tm shift.
target_desc: UniProt P49761
Sequence (P49761 whole entry, looked up): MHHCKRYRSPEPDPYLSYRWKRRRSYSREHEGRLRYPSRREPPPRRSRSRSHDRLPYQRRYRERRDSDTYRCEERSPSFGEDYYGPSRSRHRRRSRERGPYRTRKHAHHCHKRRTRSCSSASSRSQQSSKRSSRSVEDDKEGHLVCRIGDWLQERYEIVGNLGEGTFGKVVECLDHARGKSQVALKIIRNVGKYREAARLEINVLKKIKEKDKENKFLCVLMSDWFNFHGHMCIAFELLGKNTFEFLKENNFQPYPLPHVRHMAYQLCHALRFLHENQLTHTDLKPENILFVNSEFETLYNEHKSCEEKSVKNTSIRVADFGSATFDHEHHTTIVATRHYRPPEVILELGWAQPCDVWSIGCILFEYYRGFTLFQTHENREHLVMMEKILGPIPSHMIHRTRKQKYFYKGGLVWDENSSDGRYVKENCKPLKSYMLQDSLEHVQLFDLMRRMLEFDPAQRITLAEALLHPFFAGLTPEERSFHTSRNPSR
test_summary: CLK3 binders by thermal stabilization, biophysical, thermal shift, recombinant protein (AID 383)
condition_description: at 10 µM, protein 1.5 µM, buffer 10 mM HEPES, pH 7.5, NaCl 150 mM, with 50 µM L-Arg/L-Glu (1:1), stronger effect = higher value
value_type: Tm shift

>>> observed("OCC(O)CCO/N=C1/C(c2c(O)[nH]c3ccccc23)=Nc2ccccc21 (stereo not drawn)")
"4 Celsius"
>>> observed("O=C(c1ccc(Nc2nccc(-c3cc4ccccc4s3)n2)cc1)N1CCC(N2CCCC2)CC1")
"6.3 Celsius"
>>> observed("O=C1NC(=O)C(c2c[nH]c3ccccc23)=C1c1c[nH]c2ccccc12")
"3.2 Celsius"
>>> observed("Cc1[nH]c(/C=C2\\C(=O)Nc3ccc(S(=O)(=O)N(C)c4cccc(Cl)c4)cc32)c(C)c1C(=O)N1CCN(C)CC1")
"3.7 Celsius"
>>> observed("N#C/C(=C1\\Nc2ccccc2S1)c1ccnc(NCCc2cccnc2)n1")
"4.9 Celsius"
>>> observed("O=Nc1c(-c2c(O)[nH]c3ccc(S(O)(O)O)cc23)[nH]c2ccccc12")
"4.7 Celsius"
>>> observed("Cc1cc(Nc2nc(-c3ccccc3)nc3ccccc23)n[nH]1")
"4.1 Celsius"
>>> observed("O=Nc1c(-c2c(O)[nH]c3ccc(I)cc23)[nH]c2ccccc12")
"4.5 Celsius"

###

target_desc: UniProtKB P49761
test_summary: CLK3 binders by thermal stabilization, biophysical, thermal shift, recombinant protein (AID 383)
condition_description: at 10 µM, protein 2 µM, buffer 10 mM HEPES, NaCl 150 mM, with 50 mM Arg/Glu, stronger effect = higher value
Overview of reported Tm shift across a group of compounds:
value_type: Tm shift

>>> observed("CC(=O)c1cccc(-c2cnc3ccc(N[C@H](CO)C(C)C)nn23)c1")
"3.77 Celsius"
>>> observed("CC(C)C(CO)Nc1nc(Nc2cccc(Cl)c2)c2ncn(C(C)C)c2n1 (stereo not drawn)")
"3.88 Celsius"
>>> observed("NC1=N/C(=C2\\CCNC(=O)c3[nH]ccc32)C(=O)N1")
"4.35 Celsius"
>>> observed("NC1=N/C(=C2/CCNC(=O)c3[nH]c(Br)cc32)C(=O)N1")
"8.87 Celsius"
>>> observed("O=c1c(O)c(-c2ccc(O)c(O)c2)oc2cc(O)cc(O)c12")
"4.2 Celsius"
>>> observed("CC(=O)Nc1cccc(-c2cnc3ccc(N[C@H](CO)C(C)C)nn23)c1")
"4.32 Celsius"
>>> observed("Nc1ncnc2c1c(I)cn2[C@@H]1O[C@H](CO)C(O)C1O (stereo partly drawn)")
"7.25 Celsius"
>>> observed("Nc1nc(Nc2ccc(S(N)(=O)=O)cc2)nn1C(=S)Nc1c(F)cccc1F")
"15.1 Celsius"
>>> observed("CCC(CO)Nc1ccc2ncc(-c3ccc(O)cc3)n2n1 (stereo not drawn)")
"4.43 Celsius"
>>> observed("CC(C)n1cnc2c(Nc3cccc(Cl)c3)nc(NCCO)nc21")
"3.76 Celsius"
>>> observed("CC(C)[C@@H](CO)Nc1ccc2ncc(-c3ccc(C#N)cc3)n2n1")
"4.58 Celsius"
>>> observed("N=C(N)SCCCn1cc(C2=C(c3c[nH]c4ccccc34)C(=O)NC2=O)c2ccccc21")
"3.37 Celsius"
>>> observed("CCC(CO)Nc1ccc2ncc(-c3ccc(C(=O)O)cc3)n2n1 (stereo not drawn)")
"3.99 Celsius"
